Assign GI50 to each entry below.
Tested on: SK-MEL-28
Experiment: NCI tumour cell line growth inhibition, 48 h
The source made the active and inactive calls. Cut-off read from the data, not from the text of the source: active = GI50 up to about 1.1 µM and inactive = higher.

Example cases with answers are listed next.
INSERT INTO assay_data (molecule, value_measured) VALUES
  ('COc1ccccc1C(=O)OCC1CCCN2CCCCC12 (stereo not given)', '26.4 µM (inactive)'),
  ('O=C(/C=C/c1ccc(O)c(-c2cc(C(=O)/C=C/c3ccc(O)cc3)c(O)cc2O)c1)c1ccc(O)cc1O', '10.4 µM (inactive)'),
  ('CC(N)C(=O)c1ccc(O)cc1 (stereo not given)', '> 100 µM (inactive)');

Hi team, please reply with GI50 for each item in this list.
1. Cc1ccc(CC(=O)Nc2ccc(NC(=O)CNC(=O)/C=C/c3ccc(-c4ccccc4)cc3)cc2C(=O)c2ccccc2)cc1
2. CCOP(=O)(/C=C/n1ccc(N)nc1=O)OCC

11.7 µM (inactive)
> 100 µM (inactive)

Hi team, please reply with GI50 for each item in this list.
1. O=C(CC1C(=O)Nc2ccccc2S1(=O)=O)Nc1cccc(Cl)c1 (stereo not given)
2. Cc1ccccc1Nc1nc(NNC(=O)Cc2ccccc2)nc(NNC(=O)c2ccncc2)n1
3. Nc1ncnc2c1ccn2C1OC2COP(=O)(O)OC2C1O (stereo not given)
4. CCSCCCCC(c1ccc(O)cc1)C(C)(CC)c1ccc(O)cc1 (stereo not given)
5. COC(=O)/C(C#N)=C(\N)C(Cl)(Cl)Cl

20.1 µM (inactive)
> 10 µM (inactive)
0.515 µM (active)
18 µM (inactive)
2 µM (inactive)
